- TEST TARGET: natural β-amyloid peptide β-AP1-40 (human)
- Sequence (peptide, as listed by the source): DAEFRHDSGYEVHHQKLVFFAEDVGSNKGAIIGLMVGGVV
- EXPERIMENTAL PROTOCOL: cell-based or functional assay
Ends that are not written are not given here. * marks the point of attachment. Cholyl = C[C@H](CCC(=O)*)[C@H]1CC[C@H]2[C@@H]3[C@H](O)C[C@@H]4C[C@H](O)CC[C@]4(C)[C@H]3C[C@H](O)[C@]12C; iminobiotinyl = N=C1N[C@H]2[C@H](CS[C@H]2CCCCC(=O)*)N1; FICO = 5-(and 6-)-carboxyfluoresceinyl
READOUT TYPE: % Inhibition of Plateau; nucleation assay; 100 mole % (%)
Only the number, expressed in %, is required.

Past entries and their recorded results:
Cholyl-AEDVGSNKGAIIGLM [cholyl-Aβ21-35] : 51
{FICO}-KLVFFAEDVGSNKGA [FICO-Aβ16-30] : 59
Cholyl-DAEFRHDSGYEVHHQ [cholyl-Aβ1-15] : 100
iminobiotinyl-HDSGYEVHHQKLVFF [iminobiotinyl-Aβ6-20] : 44
iminobiotinyl-EVHHQKLVFFAEDVG [iminobiotinyl-Aβ11-25] : 40

Here's the next entry for you.
Incoming: % Inhibition of Plateau; nucleation assay; 100 mole % lookup needed for {FICO}-DAEFRHDSGYEVHHQ [FICO-Aβ1-15] , thanks.
Outgoing: 30
